Cited source: PubChem BioAssay (NCI)

system: NCI/ADR-RES ovarian; assay: NCI-60 one-dose screen, 48 h (100 = growth as untreated, 0 = no growth, -100 = all killed); details: 10 µM unless noted
This is part of a sample that, as a whole, favours compounds with a hit. Of some 83,000 tested, about 20% had one in any assay.
metric_name: growth (%)
Numbers only, in %.

Previously resolved entries follow.
[
  {
    "compound": "COCCNC(=O)Cc1cc(-c2ccc(Cl)cc2)n(-c2ccccc2)c1C",
    "growth, %": 86.1
  },
  {
    "compound": "O=C1CCc2c(sc3[nH]c(=S)n(-c4cc(C(F)(F)F)cc(C(F)(F)F)c4)c(=O)c23)C1",
    "growth, %": -13.4
  },
  {
    "compound": "CC(C)(C)n1cc(-c2ccnc(NCCNS(=O)(=O)c3cccc4ccccc34)c2)c(-c2cccc(O)c2)n1",
    "growth, %": 77
  }
]

Provide each entry's growth from the list below.
1. Nc1cc(-c2ccc(Cl)cc2)nn1-c1nc(-c2ccc(Br)cc2)cs1
2. Cc1c(C)c2c(c(C)c1OC(=O)CCC(=O)[O-])CCC(C)(CCCCCCCCCCC[P+](c1ccccc1)(c1ccccc1)c1ccccc1)O2 (stereo not drawn)
3. COc1cccc(C2C(C#N)=C(N)Oc3c2ccc2ccccc32)c1 (stereo not drawn)
4. C=C1CC[C@@H]2[C@](C)(COC(C)=O)[C@H](OC(C)=O)CC[C@@]2(C)[C@@H]1CC(Nc1ccc(S(=O)(=O)Nc2nccc(C)n2)cc1)C1=CCOC1=O (stereo partly drawn)

a:
105
74.3
6.19
20.9

Reported growth (NCI/ADR-RES ovarian) for entry O=C1/C(=C/c2cccc(Br)c2)COc2ccc(O)c(O)c21 is 7.25
